Below: a set of entries, each annotated with reported IC50.
Molecular target: human orexin-1 receptor (Homo sapiens (Human))
Sequence (O43613 whole entry): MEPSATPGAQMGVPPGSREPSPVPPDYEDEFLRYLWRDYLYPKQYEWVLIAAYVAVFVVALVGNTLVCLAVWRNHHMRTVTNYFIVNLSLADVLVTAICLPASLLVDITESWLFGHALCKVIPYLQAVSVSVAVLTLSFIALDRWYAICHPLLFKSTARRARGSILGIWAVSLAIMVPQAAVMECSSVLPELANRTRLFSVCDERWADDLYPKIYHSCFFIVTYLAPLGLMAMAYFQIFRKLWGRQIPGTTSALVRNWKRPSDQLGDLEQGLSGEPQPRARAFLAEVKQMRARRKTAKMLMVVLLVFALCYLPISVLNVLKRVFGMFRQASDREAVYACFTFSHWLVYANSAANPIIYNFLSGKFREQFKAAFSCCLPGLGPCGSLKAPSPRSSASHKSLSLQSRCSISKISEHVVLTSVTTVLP
Assay: In vitro assay: intracellular calcium measurements (FLIPR), antagonistic activity
Assay type: cell-based
Conditions: CHO cells, 3 nM orexin-A, compound incubation 120 min; marked values are geometric means of n = 2-6; read-out: IC50 OX1

compound="COc1cccc(OC)c1C1CCCC(=O)N1Cc1cnc(OC(F)F)c(C2CC2)c1 (centres unmarked) [Example 70]" measured_on="human orexin-1 receptor (Homo sapiens (Human))" result="1780 nM"
compound="COc1cccc(OC)c1C1CC(C)C(=O)N1Cc1cccc(OC(F)(F)C(F)F)c1 (centres unmarked) [Example 424]" measured_on="human orexin-1 receptor (Homo sapiens (Human))" result="27 nM"
compound="COc1cccc(OC)c1C1CCCCC(=O)N1Cc1ccc2sc(C)nc2c1 (centres unmarked) [Example 95]" measured_on="human orexin-1 receptor (Homo sapiens (Human))" result="8 nM"
compound="O=C1CCCCC(c2ccccc2-c2ccccc2)N1Cc1cccc(-c2nccs2)c1 (centres unmarked) [Example 454]" measured_on="human orexin-1 receptor (Homo sapiens (Human))" result="182 nM"
compound="COc1cccc(OC)c1C1CC(C)C(=O)N1Cc1cccc(-c2cscn2)c1 (centres unmarked) [Example 150]" measured_on="human orexin-1 receptor (Homo sapiens (Human))" result="7 nM"

What value of IC50 has been recorded for this entry: COc1cccc(OC)c1C1CCC(=O)N1Cc1cccc2ccccc12 (centres unmarked) [Example 116]
789 nM

What value of IC50 has been recorded for this entry: CCOc1ccc(F)c(F)c1[C@@H]1C[C@H](Cl)C(=O)N1Cc1ccc(OC(F)(F)F)cc1 (racemic) [Example 339]
816 nM

What value of IC50 has been recorded for this entry: O=C1CCCCC(c2ccccc2-c2cccnc2)N1Cc1cccc(-c2nccs2)c1 (centres unmarked) [Example 453]
381 nM
